In this section we review reported pIC50 values for a set of compounds.
# System tested: RORγ (Homo sapiens, UniProt P51449)
# Sequence (P51449 269-508 limits assumed): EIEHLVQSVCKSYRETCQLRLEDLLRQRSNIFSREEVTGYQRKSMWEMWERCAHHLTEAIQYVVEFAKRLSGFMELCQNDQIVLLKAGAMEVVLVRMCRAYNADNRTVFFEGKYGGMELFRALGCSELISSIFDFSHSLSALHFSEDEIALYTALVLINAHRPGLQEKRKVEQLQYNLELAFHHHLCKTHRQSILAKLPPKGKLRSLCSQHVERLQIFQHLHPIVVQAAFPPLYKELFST
# Method description: RORγ Reporter Gene Assay (RGA), luciferase transactivation in transiently transfected HEK 293 cells
# Condition info: HEK 293 cells cotransfected with pGL4.3 luc2P/GAL4UAS and pBIND Gal4DBD hRORC LBD; 20-24 h incubation
pIC50: −log10 of the molar value.
Quantity kind: pIC50

> print(dat)
                                   compound                        system.tested  measured
1  Cc1ncnc(C2CC2)c1-c1nc(C)c2nc(NCc3ccc(S(C)(=N)=O)cn3)c(=O)n([C@@H](C)C3CC3)c2n1 (single isomer, unassigned) [Example 43a]  RORγ (Homo sapiens, UniProt P51449)      6.14
2  CC[C@@H](C)n1c(=O)c(NCc2ncc(S(=O)(=O)CC)cn2)nc2c(C)nc(-c3c(OC)ncnc3C3CC3)nc21  RORγ (Homo sapiens, UniProt P51449)      6.74
3  CC[C@@H](C)n1c(=O)c(NCC2CCN(S(=O)(=O)CC)CC2)nc2c(C)nc(-c3c(C)ncnc3C3CC3)nc21  RORγ (Homo sapiens, UniProt P51449)      6.92
4  Cc1ncnc(C2CC2)c1-c1nc(C)c2nc(NCc3ccc(S(C)(=N)=O)cn3)c(=O)n([C@@H](C)C3CC3)c2n1 (single isomer, unassigned) [Example 43b]  RORγ (Homo sapiens, UniProt P51449)      6.40
5  CC[C@@H](C)n1c(=O)c(NCc2ccc(S(C)(=O)=O)cn2)nc2c(CO)nc(-c3c(C)ncnc3C3CC3)nc21  RORγ (Homo sapiens, UniProt P51449)      6.47
6  CC[C@H](C)n1c(=O)c(NCc2ccc(S(C)(=N)=O)cc2)nc2c(C)nc(-c3c(OC)ncnc3C3CC3)nc21 (stereo partly drawn)  RORγ (Homo sapiens, UniProt P51449)      6.60

---

# Method description: Human liver microsome (HLM) metabolic stability assay
# Type: in vitro ADME
# Condition info: human liver microsomes, 1 uM compound, 37° C., 60 min; % hepatic blood flow

Compound	HLM (% Qh)
Cc1ncnc(C2CC2)c1-c1nc(C)c2nc(NCc3ccc(S(N)(=O)=O)cn3)c(=O)n([C@@H](C)C3CC3)c2n1 [Example 61]	<24 % Qh
CCS(=N)(=O)c1ccc(CNc2nc3c(C)nc(-c4c(C)ncnc4C4CC4)nc3n([C@@H](C)C(F)(F)F)c2=O)cc1 (single isomer, unassigned) [Example 34b]	<24 % Qh
COc1ncnc(C2CC2)c1-c1nc(C)c2nc(NCc3ccc(S(N)(=O)=O)cn3)c(=O)n([C@@H](C)C(F)(F)F)c2n1 [Example 95]	40 % Qh
CC[C@@H](C)n1c(=O)c(NCc2ncc(S(C)(=O)=O)cn2)nc2c(C)nc(-c3c(C)ncnc3C3CC3)nc21 [Example 57]	<24 % Qh

Cited source for all entries: patent US10450314B2
